For each of the compounds below, state its % Corrected Mortality at 48 Hrs..
# System: Mite
# APPLIED_CONDITIONS: Dose 1 ml/gm/lit.; 48 hrs

Please review the entries below; each comes with its answer.
| COMPOUND | % Corrected Mortality at 48 Hrs. |
| --- | --- |
| C=CCc1ccc(OC)cc1 | 40.54% |
| CC1=CC(=O)C(C(C)C)=CC1=O | 27.03% |
| CC1=CCC2CC1C2(C)C (centres unmarked) | 35.14% |
| Cc1ccc(C(C)C)cc1O | 37.84% |

Go through the list and state % Corrected Mortality at 48 Hrs. for each entry.
1. CCCCCCCCCCCCCCCC(=O)O
2. C=C1C2CCC(C2)C1(C)C (centres unmarked)
3. CC12CCC(CC1)C(C)(C)O2

1. 37.84%
2. 35.14%
3. 18.92%

###

# Tested on: Mealy Bug
# APPLIED_CONDITIONS: Mealy Bug on cotton leaves; dose 1 ml/gm/lit.; 48 Hrs.
REPORTED_ENDPOINT: % Mortality at 48 Hrs.

Please review the entries below; each comes with its answer.
| MOLECULE | % Mortality at 48 Hrs. |
| --- | --- |
| CCCCC[C@H](O)CC(=O)CCc1ccc(O)c(OC)c1 | 27.50% |
| C=CCc1ccc(OC)cc1 | 62.50% |
| CCCCCCCCCCCCCCCC(=O)O | 65.00% |
| CC1=CC(=O)C(C(C)C)=CC1=O | 52.50% |
| Cc1ccc(C(C)C)c(O)c1 | 55.00% |

Go through the list and state % Mortality at 48 Hrs. for each entry.
1. O=C(/C=C/C=C/c1ccc2c(c1)OCO2)N1CCCCC1
2. CC12CCC(CC1)C(C)(C)O2
3. CC1=CCC2CC1C2(C)C (centres unmarked)
4. O=c1oc2c(O)c(O)cc3c(=O)oc4c(O)c(O)cc1c4c23
5. C=C1C2CCC(C2)C1(C)C (centres unmarked)
6. CC1CCC(C(C)C)C(O)C1 (centres unmarked)

1: 52.50%; 2: 55.00%; 3: 52.50%; 4: 60.00%; 5: 45.00%; 6: 65.00%

###

# System: chili seedlings
# EXPERIMENTAL_DETAILS: Response of chili plants, greenhouse growth (Ex. 31)
# Type: in vivo
# APPLIED_CONDITIONS: chili seedlings; dose 1 ml/gm/lit; 10th day after application
REPORTED_ENDPOINT: CCI 10th Day

| COMPOUND | CCI 10th Day |
| --- | --- |
| C=CCc1ccc(OC)cc1 [Methyl chavicol] | 15.1 |

Go through the list and state CCI 10th Day for each entry.
1. CCCCCCCCCC(C)=O [Embodiment 2-undecanone, 2-undecanone]
2. Cc1ccc(C(C)C)c(O)c1 [Thymol]
3. CC12CCC(CC1)C(C)(C)O2 [1,8 cineole]
4. C=CCc1ccc(OC)c(O)c1 [Chavibetol]

15.15
14.85
12.58
14.98

###

For each of the compounds below, state its % Mortality at 72 Hrs..
# Test system: Helicoverpa armigera
# APPLIED_CONDITIONS: Helicoverpa armigera on okra fruits; dose 1 ml/gm/lit.; 72 Hrs.
Numbers only, in %.

Please review the entries below; each comes with its answer.
| COMPOUND | UOM | % Mortality at 72 Hrs. |
| --- | --- | --- |
| CC1=CC(=O)C(C(C)C)=CC1=O [Thymoquinone] | % | 42.50 |
| Cc1ccc(C(C)C)c(O)c1 [Thymol] | % | 65.00 |
| C/C=C\c1cc(OC)c(OC)cc1OC [β-Asarone] | % | 50.00 |

Go through the list and state % Mortality at 72 Hrs. for each entry.
1. O=C(/C=C/C=C/c1ccc2c(c1)OCO2)N1CCCCC1 [Piperine]
2. CC1=CCC2CC1C2(C)C (stereo not drawn) [Alpha-pinene]

[70.00, 70.00]
